These entries and their values trace back to patent US8877791B2.

systemName: PKM2 (Homo sapiens (Human), UniProt P14618)
Sequence (P14618 whole entry, species assumed): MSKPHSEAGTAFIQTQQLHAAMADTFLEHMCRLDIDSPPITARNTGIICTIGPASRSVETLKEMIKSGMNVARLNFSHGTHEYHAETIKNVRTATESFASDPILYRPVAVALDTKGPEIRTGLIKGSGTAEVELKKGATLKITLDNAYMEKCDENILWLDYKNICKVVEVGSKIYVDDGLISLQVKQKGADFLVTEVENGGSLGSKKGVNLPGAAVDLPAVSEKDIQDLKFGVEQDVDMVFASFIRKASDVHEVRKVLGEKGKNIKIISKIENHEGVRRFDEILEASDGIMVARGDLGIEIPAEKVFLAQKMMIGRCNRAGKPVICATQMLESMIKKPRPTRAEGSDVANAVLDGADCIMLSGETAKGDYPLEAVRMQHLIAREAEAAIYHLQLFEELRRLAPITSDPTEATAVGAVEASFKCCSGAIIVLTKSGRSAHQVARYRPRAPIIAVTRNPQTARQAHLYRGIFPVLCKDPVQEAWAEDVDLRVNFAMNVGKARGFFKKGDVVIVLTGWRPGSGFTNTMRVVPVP
assayInfo: Recombinant PKM2 enzyme activity in the presence of FBP (LDH-coupled NADH consumption)
runConditions: recombinant pyruvate kinase, enzyme activity at various concentrations of inhibitor; read-out: IC50 in vitro (PKM2)
pIC50: −log10 of the molar value.
Please go through the items and note down their pIC50.

Exercise: Quick one: pIC50 of C=C(NC(C)C)c1cc2c(=O)oc3ccc(C)cc3c2s1 ?
Solution: ~4.15

Exercise: Quick one: pIC50 of CCCCCN1/C(=C/C=C/c2n(CCCCC)c3cc(Cl)c(Cl)cc3[n+]2CCCC)N(CCCC)c2cc(Cl)c(Cl)cc21 ?
Solution: ~5.00

Exercise: Quick one: pIC50 of CC(=O)CSc1ccc(-n2c(C)ccc2C)cc1 ?
Solution: ~4.05
